Ref: the supplement of paper PMC9112550

- System: Escherichia coli TOP10
- TEST_DETAILS: shrunken log2 fold change of peptide-encoding DNA abundance (4.5 h post-induction vs induction); higher = less antimicrobial activity (less host growth inhibition)
- EXPERIMENTAL_CONDITIONS: time post-induction: 4.5 h; library: site-saturation at positions 5, 18, 19, 20
Measured shrunken log2 fold change, listed per entry.

Worked cases, answers included:
>  <SEQ>
RRIRTRPPRLPRPRPRPWLCPRP

>  <shrunken log2 fold change>
0.0607

$$$$
>  <SEQ>
RRIRRRPPRLPRPRPRPDRQPRP

>  <shrunken log2 fold change>
-0.114

$$$$
>  <SEQ>
RRIRSRPPRLPRPRPRPRMQPRP

>  <shrunken log2 fold change>
0.108

$$$$
>  <SEQ>
RRIRSRPPRLPRPRPRPPDFPRP

>  <shrunken log2 fold change>
0.29

$$$$

Please give the measured shrunken log2 fold change for this sequence: RRIRCRPPRLPRPRPRPYPFPRP
-0.241

Please give the measured shrunken log2 fold change for this sequence: RRIRVRPPRLPRPRPRPMGLPRP
-0.00681

Please give the measured shrunken log2 fold change for this sequence: RRIRDRPPRLPRPRPRPNDNPRP
-0.563

Please give the measured shrunken log2 fold change for this sequence: RRIRCRPPRLPRPRPRPNNHPRP
-0.731

Please give the measured shrunken log2 fold change for this sequence: RRIRSRPPRLPRPRPRPTWIPRP
-0.38

----------
- System: Escherichia coli TOP10
- TEST_DETAILS: shrunken log2 fold change of peptide-encoding DNA abundance (4.5 h post-induction vs induction); higher = less antimicrobial activity (less host growth inhibition)
- EXPERIMENTAL_CONDITIONS: time post-induction: 4.5 h; library: site-saturation at positions 5, 18, 19, 20
Measured shrunken log2 fold change, listed per entry.
Give the figure by itself; no unit, no explanation.

Worked cases, answers included:
>  <SEQ>
RRIRIRPPRLPRPRPRPEKHPRP

>  <MEASUREMENT_TARGET>
Escherichia coli TOP10

>  <PROPERTY_LABEL>
shrunken log2 fold change

>  <DATA_VALUE>
-0.106

$$$$
>  <SEQ>
RRIRRRPPRLPRPRPRPIRFPRP

>  <MEASUREMENT_TARGET>
Escherichia coli TOP10;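 note: peptides expressed intracellularly from a pBAD plasmid library in pooled LB shake-flask culture, induced with 0.3% L-arabinose, DNA abundance read by NGS, three biological replicates, DESeq2 with apeglm shrinkage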

>  <PROPERTY_LABEL>
shrunken log2 fold change

>  <DATA_VALUE>
0.0747

$$$$

Please give the measured shrunken log2 fold change for this sequence: RRIRIRPPRLPRPRPRPFMGPRP
-0.438

Please give the measured shrunken log2 fold change for this sequence: RRIRCRPPRLPRPRPRPRFDPRP
0.136

Please give the measured shrunken log2 fold change for this sequence: RRIRYRPPRLPRPRPRPEFYPRP
-0.316

Please give the measured shrunken log2 fold change for this sequence: RRIRCRPPRLPRPRPRPPQKPRP
0.627

Please give the measured shrunken log2 fold change for this sequence: RRIRIRPPRLPRPRPRPTDMPRP
-0.385

Please give the measured shrunken log2 fold change for this sequence: RRIRIRPPRLPRPRPRPYRFPRP
-0.636

Please give the measured shrunken log2 fold change for this sequence: RRIRWRPPRLPRPRPRPSWWPRP
0.2

Please give the measured shrunken log2 fold change for this sequence: RRIRWRPPRLPRPRPRPGCEPRP
0.901

Please give the measured shrunken log2 fold change for this sequence: RRIRSRPPRLPRPRPRPTRTPRP
0.386

Please give the measured shrunken log2 fold change for this sequence: RRIRQRPPRLPRPRPRPMYIPRP
-0.0435

Please give the measured shrunken log2 fold change for this sequence: RRIRWRPPRLPRPRPRPLMFPRP
-0.122

Please give the measured shrunken log2 fold change for this sequence: RRIRCRPPRLPRPRPRPKRWPRP
0.627

Please give the measured shrunken log2 fold change for this sequence: RRIRRRPPRLPRPRPRPQCCPRP
0.49

Please give the measured shrunken log2 fold change for this sequence: RRIRDRPPRLPRPRPRPCWEPRP
0.28
